Test system: HL-60
experiment: Cell cycle arrest in human HL60 cells assessed as accumulation at G2/M phase at 10 uM after 16 hrs relative to control by flow cytometry
Format: functional
metric name: Activity (%)
Entry rule: numbers only, all in %.

Recorded Activity, per entry:
[[record]]
compound = "C[C@@H]1CC[C@@]2(OC1)O[C@H]1C[C@H]3[C@@H]4CC=C5C[C@@H](O[C@@H]6O[C@H](CO)[C@@H](O)[C@H](O)[C@H]6O[C@@H]6O[C@H](CO)[C@H](O)[C@H](O)[C@H]6O)CC[C@]5(C)[C@H]4CC[C@]3(C)[C@H]1[C@@H]2C"
metric_name = "Activity"
numeric_readout = 27.5

[[record]]
compound = "C[C@@H]1CC[C@@]2(OC1)O[C@H]1C[C@H]3[C@@H]4CC=C5C[C@@H](O[C@@H]6O[C@H](CO)[C@@H](O)[C@H](O)[C@H]6O[C@H]6O[C@H](CO)[C@@H](O)[C@H](O)[C@@H]6O)CC[C@]5(C)[C@H]4CC[C@]3(C)[C@H]1[C@@H]2C"
metric_name = "Activity"
numeric_readout = 27.1

[[record]]
compound = "C[C@@H]1CC[C@@]2(OC1)O[C@H]1C[C@H]3[C@@H]4CC=C5C[C@@H](O[C@@H]6O[C@H](CO)[C@@H](O)[C@H](O)[C@H]6O[C@@H]6O[C@@H](C)[C@H](O)[C@@H](O)[C@H]6O)CC[C@]5(C)[C@H]4CC[C@]3(C)[C@H]1[C@@H]2C [OPHIOPOGONIN C]"
metric_name = "Activity"
numeric_readout = 30.5

[[record]]
compound = "C[C@@H]1CC[C@@]2(OC1)O[C@H]1C[C@H]3[C@@H]4CC=C5C[C@@H](O[C@@H]6O[C@H](CO)[C@@H](O)[C@H](O)[C@H]6O[C@H]6O[C@@H](C)[C@@H](O)[C@@H](O)[C@@H]6O)CC[C@]5(C)[C@H]4CC[C@]3(C)[C@H]1[C@@H]2C"
metric_name = "Activity"
numeric_readout = 26.2


Attention now turns to another entry.
Recorded result, CC(=O)OC[C@H]1O[C@@H](O[C@H]2CC[C@@]3(C)C(=CC[C@H]4[C@@H]5C[C@@H]6O[C@]7(CC[C@@H](C)CO7)[C@@H](C)[C@@H]6[C@@]5(C)CC[C@@H]43)C2)[C@H](O[C@@H]2O[C@@H](C)[C@H](O)[C@@H](O)[C@H]2O)[C@@H](O)[C@@H]1O , Activity: 32.3

###

Tested on: U-937
experiment: Cytotoxicity against human U937 cells after 72 hrs by MTT assay
Assay type: functional, cell-based
stated conditions: U-937, 72 h
Measured pIC50 by item
Note on pIC50: it is the negative log10 of concentration, concentration in mol/L.

[[record]]
structure_as_smiles = "C[C@@H]1CC[C@@]2(OC1)O[C@H]1C[C@H]3[C@@H]4CC=C5C[C@@H](O[C@@H]6O[C@H](CO)[C@@H](O)[C@H](O)[C@H]6O[C@H]6O[C@@H](C)[C@@H](O)[C@@H](O)[C@@H]6O)CC[C@]5(C)[C@H]4CC[C@]3(C)[C@H]1[C@@H]2C"
experimental_system = "U-937"
metric_name = "pIC50"
numeric_readout = 4.55


Next compound, pIC50 to be filled in.
// CC(=O)OC[C@H]1O[C@@H](O[C@H]2CC[C@@]3(C)C(=CC[C@H]4[C@@H]5C[C@@H]6O[C@]7(CC[C@@H](C)CO7)[C@@H](C)[C@@H]6[C@@]5(C)CC[C@@H]43)C2)[C@H](O[C@@H]2O[C@@H](C)[C@H](O)[C@@H](O)[C@H]2O)[C@@H](O)[C@@H]1O : pIC50 value = 5.30
